Test system: HIV-1 BaL
Test: HIV-1 BaL infection inhibition assay in TZM-bl cells (luciferase)
Format: cell-based
Conditions: Human immunodeficiency virus 1, BAL, TZM-bl, read-out: IC50, unformulated drug
quantity kind: pIC50
Hey, just a heads up that pIC50 is the negative log base 10 of the concentration in molar.

Problem: For the molecule shown here, Cc1cn([C@H]2C[C@H](N=[N+]=[N-])[C@@H](CO)O2)c(=O)[nH]c1=O , give the reported pIC50.
Solution: 6.92
